Test system: H596 lung adenosquamous carcinoma cells
Experiment: Relative colony forming efficiency (Example 17, Table 13)
Type: cell-based, human
Conditions: averages of 2-8 determinations
Oligonucleotides are written 5' to 3', each unit as a sugar letter and its base; * is a phosphorothioate linkage, no mark a phosphodiester; rarer units and linkages stand in square brackets, end groups in braces. Plain capitals give the bases only. d = 2'-deoxy (DNA)
assay-metric: Reduced relative colony forming efficiency, 11596 (% inhibition of colony forming ability) (%)

substance | endpoint-unit | measured
AS-II-1560.20 (antisense dG*dT*dA*dA*dG*dT*dC*dA*dC*dA*dG*dC*dC*dA*dG*dC*dC*dA*dG*dG) | % | 71.16
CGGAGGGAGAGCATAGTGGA (antisense dC*dG*dG*dA*dG*dG*dG*dA*dG*dA*dG*dC*dA*dT*dA*dG*dT*dG*dG*dA) [AS-II-189-20] | % | 26.15
G*CC*TCCG*ACC*CTTC*CC*ATT*G (antisense dG*dCdC*dTdCdCdG*dAdCdC*dCdTdTdC*dCdC*dAdTdT*dG) [AS-II-13-20] | % | 19.63
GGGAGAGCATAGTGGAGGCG (antisense dG*dG*dG*dA*dG*dA*dG*dC*dA*dT*dA*dG*dT*dG*dG*dA*dG*dG*dC*dG) [AS-II-185-20] | % | 24.53
ATCGCCGCCGTG (antisense dA*dT*dC*dG*dC*dC*dG*dC*dC*dG*dT*dG) [AS-II-1775-12] | % | 18.6
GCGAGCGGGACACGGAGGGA (antisense dG*dC*dG*dA*dG*dC*dG*dG*dG*dA*dC*dA*dC*dG*dG*dA*dG*dG*dG*dA) [AS-II-201-20] | % | 49.6

Cited source: patent US20080311126A1
